biological target: T1, CD28 endogenously expressed on Jurkat/IL2 reporter cells (human, UniProt P10747 19-220); experiment: flow cytometry, Jurkat cells (CD28); MFI relative to WT CD80 ECD-Fc
T1 construct: also called Jurkats (CD28)

# BINDER, Fold change to WT CD80
rows = [
    ("variant CD80 IgV-Fc D46V/L85Q (Fc fusion, not shown: small tags and cut ends; a dimerising Fc or GST) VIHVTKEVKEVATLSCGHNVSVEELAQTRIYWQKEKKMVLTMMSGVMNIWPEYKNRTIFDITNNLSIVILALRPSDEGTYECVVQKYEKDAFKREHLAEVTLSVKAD", "0.2 fold"),
    ("variant CD80 IgV-Fc E35D/M47L/L85Q (Fc fusion, not shown: small tags and cut ends; a dimerising Fc or GST) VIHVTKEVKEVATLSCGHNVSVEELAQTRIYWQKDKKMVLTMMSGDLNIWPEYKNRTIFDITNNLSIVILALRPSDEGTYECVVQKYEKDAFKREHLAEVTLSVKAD", "0.1 fold"),
    ("variant CD80 IgV-Fc D46V/M47L/V68M (Fc fusion, not shown: small tags and cut ends; a dimerising Fc or GST) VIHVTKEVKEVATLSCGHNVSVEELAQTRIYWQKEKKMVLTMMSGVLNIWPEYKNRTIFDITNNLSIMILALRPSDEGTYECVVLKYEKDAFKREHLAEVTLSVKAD", "3.1 fold"),
    ("variant CD80 IgV-Fc E35D/D46V/L85Q (Fc fusion, not shown: small tags and cut ends; a dimerising Fc or GST) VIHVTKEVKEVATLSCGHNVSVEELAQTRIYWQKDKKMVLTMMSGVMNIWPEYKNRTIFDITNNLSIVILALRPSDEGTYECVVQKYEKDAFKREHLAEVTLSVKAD", "0.3 fold"),
    ("variant CD80 IgV-Fc V68M/L85Q (Fc fusion, not shown: small tags and cut ends; a dimerising Fc or GST) VIHVTKEVKEVATLSCGHNVSVEELAQTRIYWQKEKKMVLTMMSGDMNIWPEYKNRTIFDITNNLSIMILALRPSDEGTYECVVQKYEKDAFKREHLAEVTLSVKAD", "0.1 fold"),
    ("variant CD80 IgV-Fc M47V (Fc fusion, not shown: small tags and cut ends; a dimerising Fc or GST) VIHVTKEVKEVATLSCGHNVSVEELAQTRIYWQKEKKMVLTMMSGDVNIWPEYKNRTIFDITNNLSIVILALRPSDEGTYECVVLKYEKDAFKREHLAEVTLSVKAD", "0.1 fold"),
    ("variant CD80 IgV-Fc M47V/K89N (Fc fusion, not shown: small tags and cut ends; a dimerising Fc or GST) VIHVTKEVKEVATLSCGHNVSVEELAQTRIYWQKEKKMVLTMMSGDVNIWPEYKNRTIFDITNNLSIVILALRPSDEGTYECVVLKYENDAFKREHLAEVTLSVKAD", "0.3 fold"),
    ("variant CD80 IgV-Fc E35D/M47L (Fc fusion, not shown: small tags and cut ends; a dimerising Fc or GST) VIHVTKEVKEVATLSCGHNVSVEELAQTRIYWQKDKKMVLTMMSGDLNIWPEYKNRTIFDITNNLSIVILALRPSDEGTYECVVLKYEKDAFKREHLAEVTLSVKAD", "0.6 fold"),
]
